Where do these numbers come from? They come from paper PMC4321377.

target: TodS (Pseudomonas putida); construct: full-length TodS, N-terminal His tag; experiment: autophosphorylation assay with [γ-32P]ATP of purified TodS; ITC showed an exothermic chemical reaction
Sequence (E0X9C7 whole entry): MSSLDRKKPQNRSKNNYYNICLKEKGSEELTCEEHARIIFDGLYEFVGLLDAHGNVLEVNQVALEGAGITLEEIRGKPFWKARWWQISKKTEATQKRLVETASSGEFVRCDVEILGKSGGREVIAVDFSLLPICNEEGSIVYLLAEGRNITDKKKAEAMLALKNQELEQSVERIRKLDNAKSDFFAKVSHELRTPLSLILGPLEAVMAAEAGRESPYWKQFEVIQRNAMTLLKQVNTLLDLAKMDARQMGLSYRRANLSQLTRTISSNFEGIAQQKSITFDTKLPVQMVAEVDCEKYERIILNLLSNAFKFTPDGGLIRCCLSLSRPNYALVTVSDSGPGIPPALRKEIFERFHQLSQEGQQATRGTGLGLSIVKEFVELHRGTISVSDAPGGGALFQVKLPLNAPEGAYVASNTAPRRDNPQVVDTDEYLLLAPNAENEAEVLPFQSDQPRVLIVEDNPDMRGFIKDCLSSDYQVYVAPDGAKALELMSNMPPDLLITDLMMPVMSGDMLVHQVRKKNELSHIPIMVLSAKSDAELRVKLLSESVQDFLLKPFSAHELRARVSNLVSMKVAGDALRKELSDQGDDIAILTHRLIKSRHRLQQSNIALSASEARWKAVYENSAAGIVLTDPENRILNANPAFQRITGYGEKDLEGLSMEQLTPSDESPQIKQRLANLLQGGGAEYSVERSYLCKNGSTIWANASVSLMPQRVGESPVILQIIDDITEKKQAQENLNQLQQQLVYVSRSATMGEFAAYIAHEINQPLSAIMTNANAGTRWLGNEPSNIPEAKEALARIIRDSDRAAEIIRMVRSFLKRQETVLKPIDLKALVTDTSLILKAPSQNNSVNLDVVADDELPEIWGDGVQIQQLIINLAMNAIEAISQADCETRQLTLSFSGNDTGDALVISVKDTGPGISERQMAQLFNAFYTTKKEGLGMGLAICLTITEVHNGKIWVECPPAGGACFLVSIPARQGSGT
quantity_measured: EC50 (µM)
Answers are plain numbers, in µM.

Inquiry: Recorded EC50 of CC1=CC(=O)c2ccccc2C1=O , please.
Reply text: 170
